test: Pharmacokinetics and total colon distribution after oral administration; format: in vivo; conditions: male, C57BL/6, mouse, total colon; mice, Ex. 36 measured after oral 5 mg/kg of Ex. 47 (Na salt), 1 h; read-out: total colon level
MEASURE_NAME: concentration at 1 h (ng/g)
Number in ng/g, nothing else.

Inquiry: Need concentration at 1 h of COc1cc(Nc2cc(Oc3ccc(NC(=O)Nc4cc(C(C)(C)C)cc(NS(C)(=O)=O)c4OC)c4ccccc34)ccn2)cc(OC)c1C(=O)NCCOCCOCCO , thanks.
Reply text: 95.1

###

experiment: Pharmacokinetics and total colon distribution after oral administration; format: in vivo; conditions: male, C57BL/6, mouse, total colon; mice, oral 5 mg/kg, dosed compound measured, 2 h; read-out: total colon level
MEASURE_NAME: concentration at 2 h
Record the result as number plus unit.

Inquiry: Need concentration at 2 h of COc1cc(Nc2cc(Oc3ccc(NC(=O)Nc4cc(C(C)(C)C)cc(NS(C)(=O)=O)c4OC)c4ccccc34)ccn2)ccc1C(=O)NCCOCCOCCOP(=O)(O)O , thanks.
Reply text: 0 ng/g

###

tested on: Jurkat cells; experiment: (r) Cell cytotoxicity assay; assay type: cell-based, human; conditions: 1 μg/mL, 24 hours
This listing pairs molecules with measured % Viability at 1 μg/mL.
Number in %, nothing else.

Known results for molecules:
* COc1cc(Nc2cc(Oc3ccc(NC(=O)Nc4cc(C(C)(C)C)cc(NS(C)(=O)=O)c4OC)c4ccccc34)ccn2)cc(OC)c1C(=O)NCCN1CCN(C)CC1 | 102.8
* COc1cc(Nc2cc(Oc3ccc(NC(=O)Nc4cc(C(C)(C)C)cc(NS(C)(=O)=O)c4OC)c4ccccc34)ccn2)cc(OC)c1C(=O)NC1CCN(C)CC1 | 93.6
* COc1cc(Nc2cc(Oc3ccc(NC(=O)Nc4cc(C(C)(C)C)cc(NS(C)(=O)=O)c4OC)c4ccccc34)ccn2)ccc1C(=O)NCC(=O)O | 96.1
* COc1cc(Nc2cc(Oc3ccc(NC(=O)Nc4cc(C(C)(C)C)cc(NS(C)(=O)=O)c4OC)c4ccccc34)ccn2)cc(OC)c1C(=O)NCCCN1CCN(C)CC1 | 94.0
* COc1cc(Nc2cc(Oc3ccc(NC(=O)Nc4cc(C(C)(C)C)cc(NS(C)(=O)=O)c4OC)c4ccccc34)ccn2)ccc1C(=O)NC(C)CN1CCN(C)CC1 (stereo not drawn) | 103.6

Inquiry: Need % Viability at 1 μg/mL of COc1cc(Nc2nccc(Oc3ccc(NC(=O)Nc4cc(C(C)(C)C)cc(NS(C)(=O)=O)c4OC)c4ccccc34)n2)ccc1C(=O)NCCOCCOCCO , thanks.
Reply text: 102.4

###

experiment: Pharmacokinetics and total colon distribution after oral administration; assay type: in vivo; settings: male, C57BL/6, mouse, whole blood; mice, Ex. 36 measured after oral 5 mg/kg of Ex. 47 (Na salt), 1 h; read-out: Mean blood concentration
MEASURE_NAME: concentration at 1 h

Inquiry: Need concentration at 1 h of COc1cc(Nc2cc(Oc3ccc(NC(=O)Nc4cc(C(C)(C)C)cc(NS(C)(=O)=O)c4OC)c4ccccc34)ccn2)cc(OC)c1C(=O)NCCOCCOCCO , thanks.
Reply text: 0 ng/mL

###

molecular target: c-Src (Homo sapiens (Human)); experiment: c-Src enzyme inhibition, Z-LYTE FRET; assay type: biochemical
Sequence (P12931 whole entry, looked up): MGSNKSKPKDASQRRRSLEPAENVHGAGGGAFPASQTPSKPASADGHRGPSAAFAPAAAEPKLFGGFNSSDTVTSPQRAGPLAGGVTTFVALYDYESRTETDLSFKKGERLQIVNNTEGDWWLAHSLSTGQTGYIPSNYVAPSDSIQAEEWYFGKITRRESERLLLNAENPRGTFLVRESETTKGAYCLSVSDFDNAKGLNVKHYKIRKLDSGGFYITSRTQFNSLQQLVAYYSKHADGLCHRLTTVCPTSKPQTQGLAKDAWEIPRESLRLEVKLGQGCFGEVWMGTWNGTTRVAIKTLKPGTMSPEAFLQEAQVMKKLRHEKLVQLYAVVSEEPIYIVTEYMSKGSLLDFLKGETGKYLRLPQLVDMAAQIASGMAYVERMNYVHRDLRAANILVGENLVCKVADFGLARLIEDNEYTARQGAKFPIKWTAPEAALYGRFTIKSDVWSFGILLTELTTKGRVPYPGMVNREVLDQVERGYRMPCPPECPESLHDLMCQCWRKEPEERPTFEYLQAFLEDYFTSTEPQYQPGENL
MEASURE_NAME: IC50 (nM)
Number in nM, nothing else.

* COc1cc(Nc2cc(Oc3ccc(NC(=O)Nc4cc(C(C)(C)C)cc(NS(C)(=O)=O)c4OC)c4ccccc34)ccn2)cc(OC)c1C(=O)NCCOCCOCCO | 10
* COc1cc(Nc2cc(Oc3ccc(NC(=O)Nc4cc(C(C)(C)C)cc(NS(C)(=O)=O)c4OC)c4ccccc34)ccn2)ccc1C(=O)NC(CO)(CO)CO | 29
* COc1cc(Nc2cc(Oc3ccc(NC(=O)Nc4cc(C(C)(C)C)cc(NS(C)(=O)=O)c4OC)c4ccccc34)ccn2)ccc1C(=O)NCCN1CCS(=O)(=O)CC1 [17(r)] | 37
* COc1cc(Nc2cc(Oc3ccc(NC(=O)Nc4cc(C(C)(C)C)cc(NC(=O)CO)c4OC)c4ccccc34)ccn2)ccc1C(=O)NCCN1CC[S+]([O-])CC1 | 13
* COc1cc(Nc2cc(Oc3ccc(NC(=O)Nc4cc(C(C)(C)C)cc(NS(C)(=O)=O)c4OC)c4ccccc34)ccn2)ccc1S(=O)(=O)CCCN1CCOCC1 | 77

Inquiry: Need IC50 of COc1cc(Nc2cc(Oc3ccc(NC(=O)Nc4cc(C(C)(C)C)cc(NS(C)(=O)=O)c4OC)c4ccccc34)ccn2)ccc1C(=O)NCC1CCN(C)CC1 , thanks.
Reply text: 12

These entries and their values trace back to patent US10125100B2.
